Quick list: MIC 90 per entry.
test system: C. difficile; assay: microbe, parasite or virus in culture; type: cell-based, Clostridium difficile
Entry rule: numbers only, all in µg/mL.

Answered cases to consult:
compound="C=C1NC(=O)[C@H](Cc2c[nH]c3ccccc23)NC(=O)[C@H](NC(=O)[C@H](CCCCN)NC(=O)[C@@H](N)[C@@H](C)CC)CSC[C@@H](C(=O)N[C@H]2C(=O)N3CCC[C@H]3C(=O)NCC(=O)N[C@H](C(=O)N[C@@H](C)C(=O)N[C@@H](C)C(=O)N/C(=C\\C)C(=O)NCC(=O)N[C@@H]3CSC[C@@H]4NC(=O)[C@H](Cc5ccc(O)cc5)NC(=O)[C@@H](CS/C=C\\NC4=O)NC(=O)[C@H](CC(N)=O)NC(=O)[C@H](Cc4ccccc4)NC3=O)CS[C@H]2C)NC(=O)[C@H](CC(C)C)NC1=O [OG711]" reported=1
compound="C=C1NC(=O)[C@H](Cc2c[nH]c3ccccc23)NC(=O)[C@H](NC(=O)[C@H](CCCCN)NC(=O)[C@@H](N)CC(C)C)CSC[C@@H](C(=O)N[C@H]2C(=O)N3CCC[C@H]3C(=O)NCC(=O)N[C@H](C(=O)N[C@@H](C)C(=O)N[C@@H](CC(=O)O)C(=O)N/C(=C\\C)C(=O)NCC(=O)N[C@@H]3CSC[C@@H]4NC(=O)[C@H](Cc5ccc(O)cc5)NC(=O)[C@@H](CS/C=C\\NC4=O)NC(=O)[C@H](CC(N)=O)NC(=O)[C@H](Cc4ccccc4)NC3=O)CS[C@H]2C)NC(=O)[C@H](CC(C)C)NC1=O [OG705]" reported=2

Turning now to a further compound:
What MIC 90 value was documented for this compound, C=C1NC(=O)[C@H](Cc2c[nH]c3ccccc23)NC(=O)[C@H](NC(=O)[C@H](CCCCN)NC(=O)[C@@H](N)[C@@H](C)CC)CSC[C@@H](C(=O)N[C@H]2C(=O)N3CCC[C@H]3C(=O)NCC(=O)N[C@H](C(=O)N[C@@H](C)C(=O)N[C@@H](CC(=O)O)C(=O)N/C(=C\C)C(=O)NCC(=O)N[C@@H]3CSC[C@@H]4NC(=O)[C@H](Cc5ccc(O)cc5)NC(=O)[C@@H](CS/C=C\NC4=O)NC(=O)[C@H](CC(N)=O)NC(=O)[C@H](Cc4ccccc4)NC3=O)CS[C@H]2C)NC(=O)[C@H](CC(C)C)NC1=O [OG703] ?
2
